- Tested on: purified human Factor XIa (Homo sapiens (Human), UniProt P03951)
- Sequence (P03951 388-625): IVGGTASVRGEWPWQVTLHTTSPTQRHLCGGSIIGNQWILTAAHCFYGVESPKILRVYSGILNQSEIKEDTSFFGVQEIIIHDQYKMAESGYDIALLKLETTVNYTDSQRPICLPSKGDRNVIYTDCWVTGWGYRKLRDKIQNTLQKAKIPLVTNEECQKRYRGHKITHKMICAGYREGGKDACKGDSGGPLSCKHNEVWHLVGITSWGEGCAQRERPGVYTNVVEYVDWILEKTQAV
- Sequence (P03951 19-387 partner): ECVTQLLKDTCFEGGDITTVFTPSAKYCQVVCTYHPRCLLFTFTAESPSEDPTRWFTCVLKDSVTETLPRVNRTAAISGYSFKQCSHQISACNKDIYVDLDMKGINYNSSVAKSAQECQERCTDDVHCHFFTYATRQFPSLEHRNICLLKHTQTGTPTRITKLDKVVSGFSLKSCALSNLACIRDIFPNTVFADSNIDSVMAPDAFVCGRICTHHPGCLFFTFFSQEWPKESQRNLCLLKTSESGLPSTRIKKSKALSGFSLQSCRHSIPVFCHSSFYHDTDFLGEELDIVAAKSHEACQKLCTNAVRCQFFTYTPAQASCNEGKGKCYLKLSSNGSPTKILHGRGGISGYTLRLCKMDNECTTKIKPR
- Assay notes: Factor XIa Assay
- Format: biochemical
- Test conditions: substrate Z-Gly-Pro-Arg-AFC 100 μM, 40 pM enzyme, pH 7.4; read-out: FXIa IC50
pIC50: −log10 of the molar value.
Readout name: pIC50

>>> val("CCNC(=O)N1CCC(c2cccc(C(Cc3ccccc3)c3ccc(-c4cc(Cl)ccc4-n4cnnn4)c[n+]3[O-])c2)CC1 (racemic) [Example 24]")
7.72
>>> val("CCNC(=O)N1CCC(c2cccc([C@H](Cc3ccccc3)c3ccc(-c4cc(Cl)ccc4-n4cnnn4)c[n+]3[O-])c2)CC1 [Example 28]")
8.14
>>> val("O=C(O)c1ccc(-c2cccc(C(Cc3ccccc3)c3ccc(-c4cc(Cl)ccc4-n4cnnn4)c[n+]3[O-])c2)cc1 (racemic) [Example 10]")
7.72
>>> val("COC(=O)Nc1ccc(-c2cccc([C@@H](Cc3ccccc3)c3ccc(-c4cc(Cl)ccc4-n4cnnn4)c[n+]3[O-])c2)cc1 [Example 2]")
6.37
>>> val("O=C(C1CCCO1)N1CCC(c2cccc([C@H](Cc3ccccc3)c3ccc(-c4cc(Cl)ccc4-n4cnnn4)c[n+]3[O-])c2)CC1 (stereo partly drawn) [Example 31]")
7.96
>>> val("O=C(O)c1ccc(-c2cccc(C(Cc3ccccc3)c3ccc(-c4cc(Cl)ccc4-n4cnnn4)c[n+]3[O-])c2)cc1 (single isomer, unassigned) [Example 12]")
5.46
>>> val("COCCOC(=O)N1CCC(c2cccc([C@H](Cc3ccccc3)c3ccc(-c4cc(Cl)ccc4-n4cnnn4)c[n+]3[O-])c2)CC1 [Example 45]")
7.36
>>> val("CS(=O)(=O)c1ccc(-c2cccc([C@H](Cc3ccccc3)c3ccc(-c4cc(Cl)ccc4-n4cnnn4)c[n+]3[O-])c2)cc1 [Example 6]")
7.51
>>> val("O=C(O)c1ccc(-c2cccc(C(Cc3ccccc3)c3ccc(-c4cc(Cl)ccc4-n4cnnn4)c[n+]3[O-])c2)cc1 (single isomer, unassigned) [Example 11]")
7.85
>>> val("COC(=O)Nc1ccc(-c2cccc(C(Cc3ccccc3)c3ccc(-c4cc(Cl)ccc4-n4cnnn4)c[n+]3[O-])c2)cc1 (racemic) [Example 1]")
9.20
>>> val("CS(=O)(=O)N1CCC(c2cccc(C(Cc3ccccc3)c3ccc(-c4cc(Cl)ccc4-n4cnnn4)c[n+]3[O-])c2)CC1 (racemic) [Example 22]")
7.23
>>> val("CS(=O)(=O)c1ccc(-c2cccc([C@@H](Cc3ccccc3)c3ccc(-c4cc(Cl)ccc4-n4cnnn4)c[n+]3[O-])c2)cc1 [Example 5]")
5.00

----------
- Tested on: purified Human plasma kallikrein (Homo sapiens (Human), UniProt P03952)
- Sequence (P03952 391-638): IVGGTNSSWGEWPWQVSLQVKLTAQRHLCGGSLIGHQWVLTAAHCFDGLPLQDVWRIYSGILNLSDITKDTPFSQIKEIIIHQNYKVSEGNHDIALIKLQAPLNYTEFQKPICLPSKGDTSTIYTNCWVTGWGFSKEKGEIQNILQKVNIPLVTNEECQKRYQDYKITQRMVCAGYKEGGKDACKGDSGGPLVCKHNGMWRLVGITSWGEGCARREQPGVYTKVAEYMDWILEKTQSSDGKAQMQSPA
- Sequence (P03952 20-390 partner): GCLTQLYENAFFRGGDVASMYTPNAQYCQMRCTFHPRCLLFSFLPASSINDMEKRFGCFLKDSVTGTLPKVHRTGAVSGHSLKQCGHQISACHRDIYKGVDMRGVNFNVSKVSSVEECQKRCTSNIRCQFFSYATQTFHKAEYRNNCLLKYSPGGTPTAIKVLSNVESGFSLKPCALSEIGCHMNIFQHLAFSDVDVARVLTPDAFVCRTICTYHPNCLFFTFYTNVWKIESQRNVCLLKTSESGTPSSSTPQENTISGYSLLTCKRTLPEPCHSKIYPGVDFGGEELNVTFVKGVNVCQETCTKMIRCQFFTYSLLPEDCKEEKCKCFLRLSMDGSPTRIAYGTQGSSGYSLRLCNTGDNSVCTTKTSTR
- Assay notes: Kallikrein Assay
- Format: biochemical
- Test conditions: Plasma kallikrein; substrate Acetyl-K-P-R-AFC, 0.5 nM enzyme, pH 7.4; read-out: PK IC50
pIC50: −log10 of the molar value.
Overview of reported pIC50 across a group of compounds:
Readout name: pIC50

>>> val("CS(=O)(=O)c1ccc(-c2cccc([C@H](Cc3ccccc3)c3ccc(-c4cc(Cl)ccc4-n4cnnn4)c[n+]3[O-])c2)cc1")
5.95
>>> val("O=C(C1CC1)N1CCC(c2cccc([C@H](Cc3ccccc3)c3ccc(-c4cc(Cl)ccc4-n4cnnn4)c[n+]3[O-])c2)CC1")
6.43
>>> val("COCCC(=O)N1CCC(c2cccc([C@H](Cc3ccccc3)c3ccc(-c4cc(Cl)ccc4-n4cnnn4)c[n+]3[O-])c2)CC1")
6.43
>>> val("O=C(O)c1cccc(-c2cccc(C(CC3CC3)c3ccc(-c4cc(Cl)ccc4-n4cnnn4)c[n+]3[O-])c2)c1 (racemic) [Example 17]")
6.27
>>> val("O=C(NC1CCC1)N1CCC(c2cccc([C@H](Cc3ccccc3)c3ccc(-c4cc(Cl)ccc4-n4cnnn4)c[n+]3[O-])c2)CC1")
6.21
>>> val("O=C(NC1CCOC1)N1CCC(c2cccc([C@H](Cc3ccccc3)c3ccc(-c4cc(Cl)ccc4-n4cnnn4)c[n+]3[O-])c2)CC1 (stereo partly shown)")
6.38
>>> val("O=C(O)c1cccc(-c2cccc(C(Cc3ccccc3)c3ccc(-c4cc(Cl)ccc4-n4cnnn4)c[n+]3[O-])c2)c1 (racemic)")
7.11
>>> val("CNC(=O)N1CCC(c2cccc(C(Cc3ccccc3)c3ccc(-c4cc(Cl)ccc4-n4cnnn4)c[n+]3[O-])c2)CC1 (racemic)")
6.30
>>> val("O=C(O)c1cccc(-c2cccc([C@@H](Cc3ccccc3)c3ccc(-c4cc(Cl)ccc4-n4cnnn4)c[n+]3[O-])c2)c1 (stereo in doubt)")
5.16
>>> val("COCC(=O)N1CCC(c2cccc([C@H](Cc3ccccc3)c3ccc(-c4cc(Cl)ccc4-n4cnnn4)c[n+]3[O-])c2)CC1")
6.42
>>> val("CS(=O)(=O)N1CCC(c2cccc(C(Cc3ccccc3)c3ccc(-c4cc(Cl)ccc4-n4cnnn4)c[n+]3[O-])c2)CC1 (racemic)")
5.98
>>> val("CCNC(=O)N1CCC(c2cccc(C(Cc3ccccc3)c3ccc(-c4cc(Cl)ccc4-n4cnnn4)c[n+]3[O-])c2)CC1 (racemic)")
6.15
>>> val("NC(=O)C(=O)N1CCC(c2cccc([C@H](Cc3ccccc3)c3ccc(-c4cc(Cl)ccc4-n4cnnn4)c[n+]3[O-])c2)CC1")
6.95
>>> val("CS(=O)(=O)c1ccc(-c2cccc(C(Cc3ccccc3)c3ccc(-c4cc(Cl)ccc4-n4cnnn4)c[n+]3[O-])c2)cc1 (stereo not shown)")
5.33
>>> val("COCCNC(=O)N1CCC(c2cccc([C@H](Cc3ccccc3)c3ccc(-c4cc(Cl)ccc4-n4cnnn4)c[n+]3[O-])c2)CC1")
6.49
>>> val("O=C(O)c1cccc(-c2cc(F)cc(C(Cc3ccccc3)c3ccc(-c4cc(Cl)ccc4-n4cnnn4)c[n+]3[O-])c2)c1 (racemic)")
7.92
>>> val("O=C(NC1CCCC1)N1CCC(c2cccc([C@H](Cc3ccccc3)c3ccc(-c4cc(Cl)ccc4-n4cnnn4)c[n+]3[O-])c2)CC1")
6.06
>>> val("O=C(O)c1cccc(-c2cc(F)cc([C@H](Cc3ccccc3)c3ccc(-c4cc(Cl)ccc4-n4cnnn4)c[n+]3[O-])c2)c1")
7.72
>>> val("NC(=O)c1cccc(-c2cc(F)cc([C@H](Cc3ccccc3)c3ccc(-c4cc(Cl)ccc4-n4cnnn4)c[n+]3[O-])c2)c1")
6.75
>>> val("O=C(C1CCCO1)N1CCC(c2cccc([C@H](Cc3ccccc3)c3ccc(-c4cc(Cl)ccc4-n4cnnn4)c[n+]3[O-])c2)CC1 (stereo partly shown)")
6.47
>>> val("O=C(O)c1cccc(-c2cccc(C(CC3CC3)c3ccc(-c4cc(Cl)ccc4-n4cnnn4)c[n+]3[O-])c2)c1 (stereo not shown) [Example 18]")
6.60
>>> val("O=C(O)c1ccc(-c2cccc(C(Cc3ccccc3)c3ccc(-c4cc(Cl)ccc4-n4cnnn4)c[n+]3[O-])c2)cc1 (racemic) [Example 10]")
6.15
>>> val("COCCOC(=O)N1CCC(c2cccc([C@H](Cc3ccccc3)c3ccc(-c4cc(Cl)ccc4-n4cnnn4)c[n+]3[O-])c2)CC1")
6.18
>>> val("O=C(O)c1ccc(-c2cccc(C(Cc3ccccc3)c3ccc(-c4cc(Cl)ccc4-n4cnnn4)c[n+]3[O-])c2)cc1 (single isomer, unassigned) [Example 11]")
6.56
>>> val("O=C(C1CCO1)N1CCC(c2cccc([C@H](Cc3ccccc3)c3ccc(-c4cc(Cl)ccc4-n4cnnn4)c[n+]3[O-])c2)CC1 (stereo partly shown)")
6.39

----------
- Tested on: purified human Factor XIa (Homo sapiens (Human))
- Assay notes: Factor XIa Assay
- Type: biochemical
- Test conditions: substrate Z-Gly-Pro-Arg-AFC 100 μM, 40 pM enzyme, pH 7.4; read-out: FXIa IC50
pIC50: −log10 of the molar value.
Readout name: pIC50

>>> val("O=C(NC1CCCC1)N1CCC(c2cccc([C@H](Cc3ccccc3)c3ccc(-c4cc(Cl)ccc4-n4cnnn4)c[n+]3[O-])c2)CC1")
7.70
>>> val("COCCNC(=O)N1CCC(c2cccc([C@H](Cc3ccccc3)c3ccc(-c4cc(Cl)ccc4-n4cnnn4)c[n+]3[O-])c2)CC1")
8.06
>>> val("NC(=O)c1cccc(-c2cc(F)cc([C@H](Cc3ccccc3)c3ccc(-c4cc(Cl)ccc4-n4cnnn4)c[n+]3[O-])c2)c1")
8.48
>>> val("O=C(OCC(F)(F)F)N1CCC(c2cccc([C@H](Cc3ccccc3)c3ccc(-c4cc(Cl)ccc4-n4cnnn4)c[n+]3[O-])c2)CC1")
6.32
>>> val("COC(=O)Nc1ccc(-c2cccc([C@H](Cc3ccccc3)c3ccc(-c4cc(Cl)ccc4-n4cnnn4)c[n+]3[O-])c2)cc1")
8.68
>>> val("O=C(C1CCO1)N1CCC(c2cccc([C@H](Cc3ccccc3)c3ccc(-c4cc(Cl)ccc4-n4cnnn4)c[n+]3[O-])c2)CC1 (stereo partly shown)")
7.91
>>> val("O=C1CC(C(=O)N2CCC(c3cccc([C@H](Cc4ccccc4)c4ccc(-c5cc(Cl)ccc5-n5cnnn5)c[n+]4[O-])c3)CC2)C1")
7.95
>>> val("O=C(OCC1CC1)N1CCC(c2cccc([C@H](Cc3ccccc3)c3ccc(-c4cc(Cl)ccc4-n4cnnn4)c[n+]3[O-])c2)CC1")
6.73
>>> val("O=C(NC1CCOC1)N1CCC(c2cccc([C@H](Cc3ccccc3)c3ccc(-c4cc(Cl)ccc4-n4cnnn4)c[n+]3[O-])c2)CC1 (stereo partly shown)")
8.16
>>> val("CS(=O)(=O)c1ccc(-c2cccc(C(Cc3ccccc3)c3ccc(-c4cc(Cl)ccc4-n4cnnn4)c[n+]3[O-])c2)cc1 (stereo not shown)")
7.41
>>> val("CC(C)(C)OC(=O)N1CCC(c2cccc([C@H](Cc3ccccc3)c3ccc(-c4cc(Cl)ccc4-n4cnnn4)c[n+]3[O-])c2)CC1")
6.61
>>> val("COC(=O)N1CCC(c2cccc(C(Cc3ccccc3)c3ccc(-c4cc(Cl)ccc4-n4cnnn4)c[n+]3[O-])c2)CC1 (racemic)")
7.07
>>> val("[O-][n+]1cc(-c2cc(Cl)ccc2-n2cnnn2)ccc1C(Cc1ccccc1)c1cccc(C2CCNCC2)c1 (racemic)")
6.67
>>> val("O=C(C1CC1(F)F)N1CCC(c2cccc([C@H](Cc3ccccc3)c3ccc(-c4cc(Cl)ccc4-n4cnnn4)c[n+]3[O-])c2)CC1 (stereo partly shown)")
7.54
>>> val("O=C(OCCF)N1CCC(c2cccc([C@H](Cc3ccccc3)c3ccc(-c4cc(Cl)ccc4-n4cnnn4)c[n+]3[O-])c2)CC1")
7.20
>>> val("CCNC(=O)N1CCC(c2cccc([C@@H](Cc3ccccc3)c3ccc(-c4cc(Cl)ccc4-n4cnnn4)c[n+]3[O-])c2)CC1")
6.00
>>> val("O=C(O)c1cccc(-c2cccc(C(CC3CC3)c3ccc(-c4cc(Cl)ccc4-n4cnnn4)c[n+]3[O-])c2)c1 (stereo not shown) [Example 19]")
6.00
>>> val("COCC(=O)N1CCC(c2cccc([C@H](Cc3ccccc3)c3ccc(-c4cc(Cl)ccc4-n4cnnn4)c[n+]3[O-])c2)CC1")
8.09
>>> val("O=C(O)c1cccc(-c2cc(F)cc([C@@H](Cc3ccccc3)c3ccc(-c4cc(Cl)ccc4-n4cnnn4)c[n+]3[O-])c2)c1")
6.63
>>> val("CCCOC(=O)N1CCC(c2cccc([C@H](Cc3ccccc3)c3ccc(-c4cc(Cl)ccc4-n4cnnn4)c[n+]3[O-])c2)CC1")
6.88
>>> val("O=C(NC1CCC1)N1CCC(c2cccc([C@H](Cc3ccccc3)c3ccc(-c4cc(Cl)ccc4-n4cnnn4)c[n+]3[O-])c2)CC1")
7.88
>>> val("O=C(O)c1cccc(-c2cccc(C(CC3CC3)c3ccc(-c4cc(Cl)ccc4-n4cnnn4)c[n+]3[O-])c2)c1 (racemic) [Example 17]")
7.92
>>> val("O=C(O)c1cccc(-c2cccc([C@H](Cc3ccccc3)c3ccc(-c4cc(Cl)ccc4-n4cnnn4)c[n+]3[O-])c2)c1 (stereo in doubt)")
9.57
>>> val("O=C(O)c1cccc(-c2cccc(C(Cc3ccccc3)c3ccc(-c4cc(Cl)ccc4-n4cnnn4)c[n+]3[O-])c2)c1 (racemic)")
9.34
>>> val("O=C(O)c1cccc(-c2cccc(C(CC3CC3)c3ccc(-c4cc(Cl)ccc4-n4cnnn4)c[n+]3[O-])c2)c1 (stereo not shown) [Example 18]")
7.92
